Recorded Percent Inhibition, one value per entry.
Target: recombinant human SAE enzyme (Homo sapiens (Human), UniProt Q9UBT2)
Sequence (Q9UBT2 whole entry): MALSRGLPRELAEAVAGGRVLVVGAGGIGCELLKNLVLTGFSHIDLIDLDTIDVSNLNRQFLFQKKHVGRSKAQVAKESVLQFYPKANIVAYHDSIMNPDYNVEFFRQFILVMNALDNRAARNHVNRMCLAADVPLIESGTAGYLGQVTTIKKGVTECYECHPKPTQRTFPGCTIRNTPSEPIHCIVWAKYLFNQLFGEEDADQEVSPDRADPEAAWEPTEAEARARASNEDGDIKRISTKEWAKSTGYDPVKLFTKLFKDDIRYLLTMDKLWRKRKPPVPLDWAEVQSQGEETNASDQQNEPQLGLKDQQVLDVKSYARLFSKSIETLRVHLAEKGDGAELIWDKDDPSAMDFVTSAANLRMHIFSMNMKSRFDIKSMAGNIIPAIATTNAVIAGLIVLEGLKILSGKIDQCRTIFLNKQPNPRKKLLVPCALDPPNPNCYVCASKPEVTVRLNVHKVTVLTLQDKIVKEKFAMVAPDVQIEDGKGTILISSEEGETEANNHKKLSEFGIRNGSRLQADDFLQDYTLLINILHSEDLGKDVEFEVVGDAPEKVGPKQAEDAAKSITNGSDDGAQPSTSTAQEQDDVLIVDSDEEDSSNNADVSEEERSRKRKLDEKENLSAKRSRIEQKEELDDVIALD
Sequence (Q9UBE0 whole entry partner): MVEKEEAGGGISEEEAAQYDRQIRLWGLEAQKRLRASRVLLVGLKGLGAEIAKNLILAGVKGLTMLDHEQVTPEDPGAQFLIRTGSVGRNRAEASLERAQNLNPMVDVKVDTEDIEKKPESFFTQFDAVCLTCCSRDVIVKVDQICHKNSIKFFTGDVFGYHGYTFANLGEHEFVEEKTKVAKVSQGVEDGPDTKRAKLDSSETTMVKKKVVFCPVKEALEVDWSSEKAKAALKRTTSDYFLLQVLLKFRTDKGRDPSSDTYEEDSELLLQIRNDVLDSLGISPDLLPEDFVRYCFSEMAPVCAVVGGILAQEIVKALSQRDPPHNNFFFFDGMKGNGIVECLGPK
Test: SAE HTRF enzyme assay
Assay type: biochemical
Conditions: Concentration 0.111 μM
Experimental: Example 215: SAE HTRF enzyme assay The SAE enzymatic reaction totals 50 μl and contains 50 mM HEPES Hemisodium (pH 7.5), 0.05% BSA, 5 mM MgCl2, 0.5 μM ATP, 250 μM GSH, 0.01 μM Ubc9-GST, 0.125 μM Sumo-Flag and 0.11 nM recombinant human SAE enzyme. […] After incubation for 2 hours at 24° C., quantification of FRET is performed on the Pherostar™ (BMG Labtech). Percentage inhibition values at a single concentration or enzyme inhibition (IC50) values are determined from those curves. […]

# compound, Percent Inhibition
data = [
    ("Cc1sc(C(=O)c2cncnc2N[C@@H]2C[C@H](COS(N)(=O)=O)[C@@H](O)C2)cc1[C@H]1OCC(F)(F)c2ccc(Cl)nc21 (single isomer, unassigned) [I-260b]", 98),
    ("NS(=O)(=O)OC[C@H]1C[C@@H](Nc2ncncc2C(=O)c2cc(C(O)c3cccc(Cl)n3)cs2)C[C@@H]1O (single isomer, unassigned) [I-29b]", 99),
    ("NS(=O)(=O)OCC1CC(Nc2ncncc2C(=O)c2cc(C(O)c3cc(Br)ccc3F)cs2)CC1O (mixture of isomers)", 100),
    ("Cc1sc(C(=O)c2cncnc2N[C@@H]2C[C@H](COS(N)(=O)=O)[C@@H](O)C2)cc1[C@H](N)c1cccc(Cl)c1 (single isomer, unassigned) [I-6b]", 98),
    ("NS(=O)(=O)OC[C@H]1C[C@@H](Nc2ncncc2C(=O)c2cc(C3OCCc4ccc(Cl)cc43)cs2)C[C@@H]1O (single isomer, unassigned) [I-261b]", 99),
    ("CC(O)(c1cccc(Cl)c1)c1cc(C(=O)c2cncnc2N[C@@H]2C[C@H](COS(N)(=O)=O)[C@@H](O)C2)sc1Cl (single isomer, unassigned) [I-102b]", 97),
    ("Cc1sc(C(=O)c2cncnc2N[C@@H]2C[C@H](COS(N)(=O)=O)[C@@H](O)C2)cc1[C@@]1(c2ccccc2)CCCO1 (mixture of isomers)", 98),
    ("NS(=O)(=O)OC[C@H]1C[C@@H](Nc2ncncc2C(=O)c2cc([C@@H]3OCCc4ccc(Br)cc43)cs2)C[C@@H]1O (single isomer, unassigned) [I-268a]", 50),
    ("NS(=O)(=O)OC[C@H]1C[C@@H](Nc2ncncc2C(=O)c2cc([C@H](O)c3cccc(Cl)c3F)c(Cl)s2)C[C@@H]1O (mixture of isomers)", 96),
    ("CC(O)(c1cccc(Br)c1)c1csc(C(=O)c2cncnc2N[C@@H]2C[C@H](COS(N)(=O)=O)[C@@H](O)C2)c1 (single isomer, unassigned) [I-3a]", 92),
]

Next, consider the following compound.
The recorded Percent Inhibition for NS(=O)(=O)OC[C@H]1C[C@@H](Nc2ncncc2C(=O)c2cc(C3NCCc4ccc(Cl)cc43)cs2)C[C@@H]1O (single isomer, unassigned) [I-274a] is 98
